Test system: MS2 coat protein
METHOD: apparent KD of MS2 coat protein; designed switch direction (-1 OFF switch, 1 ON switch): -1; higher = weaker reporter binding
PROTOCOL CONDITIONS: input ligand: FMN 200 uM
MEASURE: apparent KD of MS2 coat protein

Use the examples below as a reference point.
>>> result("GUCAGCUCGUCAGGAUAUACAUGAGGAUCACCCAUGUGGUCAAUAGCAGCUUCGGCUGCAAUAAUGUAGAAGGGACGAGCUGAC [ENG2/8-E] (Eterna round: R96, puzzle: Exclusion NG 2)")
"115 nM"
>>> result("UGAUCUAGCGGAGGAUAUACAUGAGGAUCACCCAUGUAUAGGCUAUGACCGUAGUCGUGGAACAUGUAGAAGGCCGCUAGAUCU [JL ENG2 3.79] (Eterna round: R96, puzzle: Exclusion NG 2)")
"569 nM"
>>> result("GUACUGAAGCAUAGCUUUAGUCGUACAUGAGGAUCACCCAUGUAGGAUAUGGUAGGCAUAGCUUACUAGAAGGAUAGAGUGAUC [Mat - Exclusion NG 3 - Mod of JL - D72] (Eterna round: R96, puzzle: Exclusion NG 3)")
"440 nM"
>>> result("CAUUAUUAUCGAGGAUAUCCUAUUGAAAUUCUAGGAGAAGGCGGACUCAACAUGAGGAUCACCCAUGUGGGACGGAUGCUAGGG [Ex NG1 #29] (Eterna round: R96, puzzle: Exclusion NG 1)")
"15.9 nM"
>>> result("UGGACACCAGUAGGAUAUGUAGGAUAUGUUGUUGAGGAUCACCCAACAAAUUAAACGACAGAAGGACAGAAGGACUAUUAUCCU [pwkr exNG2 2xFMN 1xF5.1] (Eterna round: R96, puzzle: Exclusion NG 2)")
"52.5 nM"
>>> result("UGUUGUUCAGGAUAUGGUGUGUUUUACAUGAGGAUCACCCAUGUGGGUCCUGGUUUGGCGUCAGAAGGGAAUGUUG [salish99_ex5_r4_117] (Eterna round: R97, puzzle: Exclusion 5)")
"788 nM"
>>> result("UUUUUAUAUGAAGGAUAUACUUAACAUGAGGAUCACCCAUGUGGUGUUGUGAGUGAGUGAGUUUAGUAGAAGGUCAAUUAGUUU [JMF's solution 12] (Eterna round: R96, puzzle: Exclusion NG 2)")
"363 nM"
>>> result("ACAUGUCAUCGAGGAUAUUGCACACAUGAGGAUCACCCAUGUAUUCGGUUGCUCUCGCGUGAGUUCGAGAAGGCGAUGUACAUU [Ex NG2 #84] (Eterna round: R96, puzzle: Exclusion NG 2)")
"276 nM"

API: the following record is the query input.
Which apparent KD of MS2 coat protein is reported for this sequence? AGAUCACAUGAGGAUCACCCAUGUCAGGAUAUCAUCAUUGAAGCUGCGGCUUCAAUGAUGAGAAGGGACAUAAU [E1/2-B3] (Eterna round: R97, puzzle: Exclusion 1)
105 nM
